assay-readout: melting point

Prompt: GET /values?readout=melting point&item= `CCCCNC(=O)NS(=O)(=O)c1ccccc1-c1ccc(C(=O)OC)o1`
Response: 145 to 148 °C

Prompt: GET /values?readout=melting point&item= `CCOc1nc2cccc(CC)c2c(=O)o1`
Response: 89 to 91 °C

Prompt: GET /values?readout=melting point&item= `CCOC(=O)c1cc2c(C)ccc3c2n1CCC3`
Response: 51 to 52 °C

Prompt: GET /values?readout=melting point&item= `O=c1[nH]c(=O)c2ccccc2o1`
Response: 132 to 133 °C

Prompt: GET /values?readout=melting point&item= `CS(=O)(=O)n1cnc2cc(Cl)c(Cl)cc21`
Response: 191 to 193 °C

Prompt: GET /values?readout=melting point&item= `N#CC(N)=C(C#N)N=Cc1c(Cl)cc(C(F)(F)F)cc1Cl`
Response: 218 to 219 °C

Prompt: GET /values?readout=melting point&item= `N#Cc1ccc(N2C(=O)N(CCCCO)C3(CCCCC3)C2=O)cc1C(F)(F)F`
Response: 145 °C

Prompt: GET /values?readout=melting point&item= `Cc1[nH]c(=O)ccc1C(=O)c1ccc(O)cc1`
Response: 280 to 282 °C

Prompt: GET /values?readout=melting point&item= COc1ccccc1C1(O)CCN(C2CCN(C(=O)c3cc(C)cc(C)c3)C(Cc3ccccc3)C2)CC1 (configuration not stated)
Response: 213 °C

Prompt: GET /values?readout=melting point&item= `CCOC(=O)c1cn(C(=O)OCC(C)C)c2c(COC(C)=O)cc(C)cc2c1=O`
Response: 101 to 103 °C

Prompt: GET /values?readout=melting point&item= CC1=NN(C(=O)c2ccccc2Cl)C2(O)CCCC12 (configuration not stated)
Response: 147 to 150 °C

Prompt: GET /values?readout=melting point&item= CC1C(c2ccccc2)NC(=S)N1O (configuration not stated)
Response: 202 °C

Prompt: GET /values?readout=melting point&item= CC(=O)N1c2ccccc2[C@@]2(C)Cc3ccccc3[C@@]12C (relative stereo)
Response: 81 °C

Prompt: GET /values?readout=melting point&item= `O=[N+]([O-])c1oc2cc3c(cc2c1-c1ccccc1)CCC3`
Response: 161 to 164 °C

Prompt: GET /values?readout=melting point&item= Cc1c(C)c2c(c(C)c1O)CC(CCI)O2 (racemic)
Response: 96 to 97 °C

Prompt: GET /values?readout=melting point&item= CCOC(=O)C(Cc1ccc(C)c(OC(F)(F)C(F)F)c1)C(=O)c1ccc(F)cc1 (configuration not stated)
Response: 52 to 53 °C

Prompt: GET /values?readout=melting point&item= `COc1ccc2c3c1CCCN3C(C)(C)C=C2C`
Response: 87 to 88 °C

Prompt: GET /values?readout=melting point&item= `CCCC[C@H](NC(=O)[C@H](CC(C)C)NC(=O)c1ccccc1C(F)(F)F)C(=O)CSCc1ccco1`
Response: 102 to 106 °C

Prompt: GET /values?readout=melting point&item= `Cc1ccc2[nH]c3c(cc(-c4cccc(Nc5ccccn5)c4)c(=O)n3C)c2c1`
Response: 250 to 252 °C

Prompt: GET /values?readout=melting point&item= O=C1OC(CCCCl)CN1c1ccccc1 (configuration not stated)
Response: 76 to 79 °C

Prompt: GET /values?readout=melting point&item= `CCCSCC(=O)NNC(=O)N1Cc2ccccc2Oc2ccc(Cl)cc21`
Response: 78 to 81 °C

Prompt: GET /values?readout=melting point&item= `Cc1cnc(CCCC#N)c(N)c1`
Response: 84 to 87 °C

###

assay-readout: melting point

Prompt: GET /values?readout=melting point&item= C[C@@H]([C@H]1CO1)[C@](O)(Cn1cncn1)c1ccc(F)cc1F (relative stereo)
Response: 160 to 180 °C

Prompt: GET /values?readout=melting point&item= CC(C#CC1=C(C)C(O)C(O)CC1(C)C)=CCO (configuration not stated)
Response: 115 to 117 °C

Prompt: GET /values?readout=melting point&item= CN(C)c1ccc(NC(=O)N(CCC2=CCCCC2)C[C@H]2CCC[C@H](CN(CCC3=CCCCC3)C(=O)Nc3ccc(N(C)C)cc3)C2)cc1 (relative stereo)
Response: 80 to 83 °C

Prompt: GET /values?readout=melting point&item= `Cc1ccc(-c2ccc3c(c2)C(=O)CC3)cc1`
Response: 121 to 122 °C

Prompt: GET /values?readout=melting point&item= `CCCCc1nn(-c2cc([N+](=O)[O-])ccc2Cl)c(=O)[nH]1`
Response: 145 to 147 °C

Prompt: GET /values?readout=melting point&item= Clc1ccc(CN2CC3(COc4cc5c(cc43)OCO5)c3ccccc32)o1 (configuration not stated)
Response: 148 to 150 °C

Prompt: GET /values?readout=melting point&item= `CN(C)S(=O)(=O)c1cc(Cl)c(Cl)c(Cl)c1SCSC#N`
Response: 155 to 156 °C

Prompt: GET /values?readout=melting point&item= CCC(=O)N1N=C(c2ccc([N+](=O)[O-])c(C)c2)c2cc3c(cc2CC1C)OCO3 (configuration not stated)
Response: 172 to 175 °C

Prompt: GET /values?readout=melting point&item= `O=C(NC(=O)c1c(F)cccc1F)Nc1ccc(Cl)cn1`
Response: 226 to 229 °C

Prompt: GET /values?readout=melting point&item= `CCCCc1nc2c(N)nc3ccccc3c2n1CC(C)(C)C(N)=O`
Response: 231 to 233 °C

Prompt: GET /values?readout=melting point&item= `Cn1c2ccc(-c3nnn[nH]3)cc2c(=O)c2cc(-c3nnn[nH]3)ccc21`
Response: > 400 °C

Prompt: GET /values?readout=melting point&item= `CCN1CCc2cc(S(=O)(=O)C[N+](=O)[O-])ccc21`
Response: 122 °C

Prompt: GET /values?readout=melting point&item= `Nc1c(CC(=O)O)cccc1Oc1ccccc1F`
Response: 122 to 123 °C

Prompt: GET /values?readout=melting point&item= `Clc1ccc(C2=NNCC2)cc1`
Response: 90 to 100 °C

Prompt: GET /values?readout=melting point&item= CN1NC(=O)CC1c1ccccc1 (configuration not stated)
Response: 160 to 161 °C

Prompt: GET /values?readout=melting point&item= `C[C@@H]1N=C(c2ccccc2Cl)c2c(ccc(N)c2Br)N(C)C1=O`
Response: 243 °C

Prompt: GET /values?readout=melting point&item= `N#CCc1cn(Cc2ccc(OCc3ccccc3)cc2)nc1-c1ccc(F)cc1`
Response: 86 to 87 °C

Prompt: GET /values?readout=melting point&item= N#Cc1ccc(C(=O)NC2CCCNC(=O)C2)cc1 (configuration not stated)
Response: 189 to 190 °C

Prompt: GET /values?readout=melting point&item= `Cn1c(=O)c2nc(C(=O)O)cn2c2ccccc21`
Response: 267 to 268 °C

Prompt: GET /values?readout=melting point&item= CC(Oc1ccc(Cl)cc1[N+](=O)[O-])c1ccnc2ncnn12 (configuration not stated)
Response: 158 °C

Prompt: GET /values?readout=melting point&item= CC(C)(C)OCC1CN(c2ccc3ccccc3c2)C(=O)O1 (configuration not stated)
Response: 112 to 113 °C

Prompt: GET /values?readout=melting point&item= `CCOc1nc2c(C)sc(C(=O)OC)c2n1Cc1ccc(-c2ccccc2C#N)cc1`
Response: 155 to 156 °C

Prompt: GET /values?readout=melting point&item= `COc1ccc(Cl)cc1C1=NCCO1`
Response: 100 to 101 °C

Prompt: GET /values?readout=melting point&item= `S=C(Cc1ccc2c(c1)CCO2)N1CCOCC1`
Response: 141 to 143 °C

Prompt: GET /values?readout=melting point&item= `CCOC(=O)CN(C)CCCNC(=O)C=CC(=O)Nc1ccc2ncnc(Nc3cccc(Br)c3)c2c1`
Response: 278 to 279 °C

Prompt: GET /values?readout=melting point&item= NC(=O)N1CCC(OCCN2CCCCC2)C1 (configuration not stated)
Response: 134 to 136 °C

Prompt: GET /values?readout=melting point&item= `CCCOc1ccc(/C=C/C(=O)OC(C)(C)C)cc1-c1nc2c(c(C)nn2CCC)c(=O)[nH]1`
Response: 181 to 182 °C

Prompt: GET /values?readout=melting point&item= `C#CCN1CCCNC1=C[N+](=O)[O-]`
Response: 157 to 158 °C

Prompt: GET /values?readout=melting point&item= `O=[N+]([O-])c1ccc(-c2cnc3nc(S(=O)(=O)Cl)nn3c2)cc1`
Response: 159 to 167 °C

Prompt: GET /values?readout=melting point&item= `N#Cc1ccc([C@H]2CC[C@H](C=O)CC2)cc1`
Response: 57.1 °C

Prompt: GET /values?readout=melting point&item= `NC(=O)N1C(=O)Cc2ccc(-c3ccccc3)cc21`
Response: 188 to 189 °C

Prompt: GET /values?readout=melting point&item= `CCOC(=O)C(CCC#N)(C(=O)OCC)c1ncc(C)cc1[N+](=O)[O-]`
Response: 48 to 49 °C

Prompt: GET /values?readout=melting point&item= `Cc1nc2c(O)cccn2c1C=O`
Response: 251 to 252 °C

Prompt: GET /values?readout=melting point&item= `COc1ccc(Cl)cc1-c1c(Sc2ccncc2)c(=O)[nH]c2ccc(C(F)(F)F)cc12`
Response: 257 to 260 °C

Prompt: GET /values?readout=melting point&item= `N#Cc1c(Br)c(C(F)(F)F)n(COC(=O)C2CC2)c1-c1ccc(Cl)cc1`
Response: 122 to 123 °C

Prompt: GET /values?readout=melting point&item= `O=C1CC(c2cccc(-n3ccnc3)c2)=Nc2ccc(C#Cc3ccc(F)cc3)cc2N1`
Response: 216 to 218 °C

Prompt: GET /values?readout=melting point&item= `CON(C)CCNc1ncnc2nc[nH]c12`
Response: 168 to 170 °C

Prompt: GET /values?readout=melting point&item= `COCCNC(=O)c1nc(C(=O)OC)c2cc(Cc3ccc(F)cc3)cnc2c1OCc1ccccc1`
Response: 94 °C

Prompt: GET /values?readout=melting point&item= `CC(=O)N(C)Nc1ccc(CCn2cnc3cc(-c4ccc(Cl)cc4)sc3c2=O)cc1`
Response: 267 to 268 °C

Prompt: GET /values?readout=melting point&item= `Cc1nc2c(N)nc3ccccc3c2n1CCOCCCc1ccccc1`
Response: 130 to 131 °C

Prompt: GET /values?readout=melting point&item= `CC(=O)Oc1cc(OC(C)=O)cc(OC(C)=O)c1`
Response: 105 to 106 °C

Prompt: GET /values?readout=melting point&item= O=C(O)c1cccc(-c2ccc3c(c2)C(Nc2ccc(Cl)cc2Cl)CO3)c1 (configuration not stated)
Response: 164 to 165 °C
